Tested on: APAP-exposed isolated mouse liver cells (hepatocytes)
Test: Viability of APAP-exposed isolated mouse hepatocytes, graded protectant concentrations
Type: cell-based
Conditions: APAP 1.0 mM, 4 hrs; protectant 0.010-5.0 mM; read-out: EC50 (cytoprotection)
Value Type: EC50 (µM)
Answer with a number only, understood to be in µM.

Measured EC50 of CC(=O)c1cc(O)c(C(C)=O)c(O)c1 [4-NAHA, 4-acetyl-2,6-dihydroxy acetophenone] : 6

###

Quick reference for pEC50 among some compounds
Tested on: APAP-exposed isolated mouse liver cells (hepatocytes)
Assay: Viability of APAP-exposed isolated mouse hepatocytes, graded protectant concentrations
Type: cell-based
Settings: Mus musculus, Hepatocyte, 4 h; read-out: EC50 (cytoprotection)
pEC50: −log10 of the molar value.

Short answer for CC(=O)c1c(O)cc(O)cc1O [THA, 2′,4′,6′-trihydroxyacetophenone] : pEC50 was ~4.05

# pEC50 of CC(=O)C1CCCC1=O (stereo not shown) = ~3.00

Memo: Oc1cc(O)cc(O)c1 [PG, 1,3,5-trihydroxybenzene] , reported pEC50: ~4.05

Next up:
So, `CC(=O)N[C@@H](CS)C(=O)O` ? Its pEC50 was ~3.00
